Target entity: GIPR (CHO-K1-hGIPR cells) (Homo sapiens)
Construct: host or cells: CHO-K1
Sequence (P48546 22-466): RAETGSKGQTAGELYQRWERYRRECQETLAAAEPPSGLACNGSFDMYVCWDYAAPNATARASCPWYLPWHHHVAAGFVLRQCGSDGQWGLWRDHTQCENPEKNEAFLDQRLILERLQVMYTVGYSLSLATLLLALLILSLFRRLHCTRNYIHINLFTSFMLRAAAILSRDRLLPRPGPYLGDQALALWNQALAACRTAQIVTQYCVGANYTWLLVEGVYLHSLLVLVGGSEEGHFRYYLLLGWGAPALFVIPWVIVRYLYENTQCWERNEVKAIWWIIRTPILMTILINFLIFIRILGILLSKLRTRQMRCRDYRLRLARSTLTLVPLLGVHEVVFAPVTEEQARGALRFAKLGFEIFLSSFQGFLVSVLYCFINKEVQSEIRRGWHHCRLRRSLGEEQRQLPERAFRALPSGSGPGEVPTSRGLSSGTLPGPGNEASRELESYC
Procedure details: FACS binding assay
Settings: competition with 20 nM GIP-057, 4° C. for 1 hour, read-out: pIC50 Category (converted)
Protocol: In order to determine binding of compounds according to the present invention to GIPR-expressing cells, a FACS binding assay was established. […] Cells were analyzed in an Attune NxT flow cytometer. Median fluorescence intensities (MFI) of the APC/Cy5-channel were calculated by Attune NxT software. […]
*1 amine or outer side, *2 acyl side, *3 side chain or, on linkers, in order; H or OH if unused. Where a SMILES comes first, the peptide text is derived from it. Bridges are numbered along the chain shown (N, C = ends). [ ]: non-standard residue; d: D form. The star is where a group is joined. X5 = NC(=O)[C@H](CCCCNC(=O)CN1CCN(CC(=O)O)CCN(CC(=O)O)CCN(CC(=O)O)CC1)NC(=O)CCC(=O)NCCCOCCOCCOCCCN*; Pyridine(2,6-diCH2) = c1cc(C[*:1])nc(C[*:2])c1; mXylylene = c1cc(C[*:1])cc(C[*:2])c1; Hyp = O=C(O)[C@@H]1C[C@@H](O)CN1; Suc = O=C(CCC(=O)[*:2])[*:1]; hLeu = CC(C)CC[C@H](N)C(=O)O; Thp = NC1(C(=O)O)CCOCC1; Aib = CC(C)(N)C(=O)O
IC50 for assorted compounds

{"Compound": "CC[C@H](C)[C@@H]1NC(=O)[C@H](CC(C)C)NC(=O)[C@H](C)NC(=O)[C@@H](NC(=O)[C@H](CC(C)C)NC(=O)[C@H](CCC(=O)O)NC(=O)[C@H](C)NC(=O)[C@H](Cc2c[nH]c3ccccc23)NC(=O)[C@H](Cc2c[nH]c3ccccc23)NC(=O)[C@H](CC(=O)O)NC(=O)[C@H](Cc2ccc(O)cc2)NC(=O)[C@@H](N)CCSC)CSCc2cccc(c2)CSC[C@@H](C(N)=O)NC1=O [GIP-311] (H-MYDWWAELCALIC-NH2; linker 9-13 via mXylylene)", "Observed": "100 to 794 nM"}
{"Compound": "CC[C@H](C)[C@@H]1NC(=O)[C@H](CC(C)C)NC(=O)C2(CCOCC2)NC(=O)[C@@H](NC(=O)[C@@H](CC(C)C)NC(=O)[C@H](CCC(=O)O)NC(=O)[C@@H]2C[C@@H](O)CN2C(=O)[C@H](Cc2ccccc2)NC(=O)[C@H](Cc2c[nH]c3ccccc23)NC(=O)[C@H](CC(=O)O)NC(C)=O)CSCc2cccc(n2)CSC[C@@H](C(N)=O)NC1=O [GIP-352] (Ac-DWF[Hyp]E[dL]C[Thp]LIC-NH2; linker 7-11 via Pyridine(2,6-diCH2))", "Observed": "> 1000 nM"}
{"Compound": "CC[C@H](C)[C@@H]1NC(=O)[C@H](CC(C)C)NC(=O)[C@H](C)NC(=O)[C@@H](NC(=O)[C@H](CC(C)C)NC(=O)[C@H](CCC(=O)O)NC(=O)[C@@H]2CCCN2C(=O)[C@H](Cc2c[nH]c3ccccc23)NC(=O)[C@H](Cc2c[nH]c3ccccc23)NC(=O)[C@H](CC(=O)O)NC(=O)[C@H](C)NC(=O)[C@@H](N)CCSC)CSCc2cccc(c2)CSC[C@@H](C(N)=O)NC1=O [GIP-249] (H-MADWWPELCALIC-NH2; linker 9-13 via mXylylene)", "Observed": "10 to 79.4 nM"}
{"Compound": "CC[C@H](C)[C@@H]1NC(=O)[C@H](CC(C)C)NC(=O)[C@@H](C)NC(=O)[C@@H](NC(=O)[C@@H](CC(C)C)NC(=O)[C@H](CCC(=O)O)NC(=O)[C@@H]2CCCN2C(=O)[C@H](Cc2c[nH]c3ccccc23)NC(=O)[C@H](Cc2c[nH]c3ccccc23)NC(=O)CCC(=O)O)CSCc2cccc(c2)CSC[C@@H](C(=O)NCCCOCCOCCOCCCNC(=O)CCC(=O)N[C@@H](CCCCNC(=O)CN2CCN(CC(=O)O)CCN(CC(=O)O)CCN(CC(=O)O)CC2)C(N)=O)NC1=O [GIP-288] (Suc-WWPE[dL]C[dA]LIC-X5; linker 6-10 via mXylylene)", "Observed": "> 1000 nM"}

QUERY: Sample CC[C@H](C)[C@@H]1NC(=O)[C@H](CCC(C)C)NC(=O)C(C)(C)NC(=O)[C@@H](NC(=O)[C@H](CC(C)C)NC(=O)[C@H](CCC(=O)O)NC(=O)[C@@H]2CCCN2C(=O)[C@H](Cc2c[nH]c3ccccc23)NC(=O)[C@H](Cc2c[nH]c3ccccc23)NC(=O)CCC(=O)O)CSCc2cccc(c2)CSC[C@@H](C(N)=O)NC1=O [GIP-260] (Suc-WWPELC[Aib][hLeu]IC-NH2; linker 6-10 via mXylylene) — what was its IC50?
RESULT: 10 to 79.4 nM
